# Test system: CD8+ T cells
# protocol.description: In vitro immunogenicity of HLA-A*02 class I peptides: in vitro T-cell priming with aAPCs loaded with peptide/MHC complexes and anti-CD28 antibody, pMHC multimer readout
# Assay type: cell-based, human
# setup.conditions: HLA-A*02 peptides; healthy donors; specific multimer+ CD8+ T-cell line after in vitro stimulation
experimental.endpoint: Donors

1) LLYDAVHIV (listed as Homo sapiens) [GRIK3-001]; ++++ (>70% = ++++)
2) GLSEFTEYL (listed as Homo sapiens) [MAP1B-002]; ++ (20%-49 % = ++)
3) ILFPDIIARA (listed as Homo sapiens) [MAGEF1-001]; ++++ (>70% = ++++)
4) AVVEFLTSV (listed as Homo sapiens) [DROSHA-001]; ++ (20%-49 % = ++)
5) TLLAAEFLKQV (listed as Homo sapiens) [CCT-001]; +++ (50%-70% = +++)
6) SLWGGDVVL (listed as Homo sapiens) [VPS13B-001]; ++++ (>70% = ++++)
7) KLCEGFNEV (listed as Homo sapiens) [CHCHD2-005]; +++ (50%-70% = +++)
8) SLDTLMTYV (listed as Homo sapiens) [NLGN4Y-001]; ++++ (>70% = ++++)

Please fill in: Donors reported for AIIDGVESV (listed as Homo sapiens) [PTP-003] = ++++ (>70% = ++++)

----------
# Tested on: CD8+ T cells
# protocol.description: In vitro immunogenicity of HLA-A*02 class I peptides: in vitro T-cell priming with aAPCs loaded with peptide/MHC complexes and anti-CD28 antibody, pMHC multimer readout
# Format: cell-based, human
# setup.conditions: HLA-A*02 peptides; healthy donors; specific multimer+ CD8+ T-cell line after in vitro stimulation
experimental.endpoint: Donors

1. LTAPPEALLMV (listed as Homo sapiens) [NOC4-001]; +++ (50%-70% = +++)
2. MLFGHPLLVSV (listed as Homo sapiens) [USP11-001]; ++++ (>70% = ++++)
3. KLTDIQIEL (listed as Homo sapiens) [JAK-001]; ++ (20%-49 % = ++)
4. FLLPDTDGLTAL (listed as Homo sapiens) [PTP-012]; ++ (20%-49 % = ++)
5. ALADIAVGV (listed as Homo sapiens) [ADORA3-001]; ++ (20%-49 % = ++)
6. FLDSKFYLL (listed as Homo sapiens) [MAP1B-001]; +++ (50%-70% = +++)

Please fill in: Donors reported for RLGIKPESV (listed as Homo sapiens) [CSRP2-001] = ++++ (>70% = ++++)

Please fill in: Donors reported for SLYKGLLSV (listed as Homo sapiens) [RAD54B-001] = ++++ (>70% = ++++)

Please fill in: Donors reported for GLPSGAPPGV (listed as Homo sapiens) [MTSS1L-001] = ++++ (>70% = ++++)

Please fill in: Donors reported for KLADQYPHL (listed as Homo sapiens) [SOX-001] = ++++ (>70% = ++++)

----------
# System: CD8+ T cells
# protocol.description: In vitro immunogenicity of HLA-A*02 class I peptides: in vitro T-cell priming with aAPCs loaded with peptide/MHC complexes and anti-CD28 antibody, pMHC multimer readout
# Assay type: cell-based, human
# setup.conditions: HLA-A*02 peptides; healthy donors; specific multimer+ CD8+ T-cell line after in vitro stimulation
experimental.endpoint: Donors

Worked examples follow.
1) ALGDIREV (listed as Homo sapiens) [ANKRD40-001]; +++ (50%-70% = +++)
2) GMMTAILGV (listed as Homo sapiens) [SLC35E1-002]; ++ (20%-49 % = ++)
3) RVADYIVKV [SLC10A4-002]; +++ (50%-70% = +++)
4) NILEQIVSV (listed as Homo sapiens) [GRI-001]; ++ (20%-49 % = ++)
5) VLIQDVPTL (listed as Homo sapiens) [GRI-002]; ++ (20%-49 % = ++)
6) FLVDGSWSI (listed as Homo sapiens) [COL20-001]; ++ (20%-49 % = ++)

Shift focus to the following entry.
Donors for CD8+ T cells with input YLPTFFLTV (listed as Homo sapiens) [ELOVL2-001] equals ++++ (>70% = ++++)

----------
# Tested on: CD8+ T cells
# protocol.description: In vitro immunogenicity of HLA-A*02 class I peptides: in vitro T-cell priming with aAPCs loaded with peptide/MHC complexes and anti-CD28 antibody, pMHC multimer readout
# Assay type: cell-based, human
# setup.conditions: HLA-A*02 peptides; healthy donors; specific multimer+ CD8+ T-cell line after in vitro stimulation
experimental.endpoint: Donors

1. AMTQLLAGV (listed as Homo sapiens) [TNC-001]; ++ (20%-49 % = ++)
2. TLWYRAPEV (listed as Homo sapiens) [CDK4-001]; ++++ (>70% = ++++)
3. GLDPSSGAIHV (listed as Homo sapiens) [PCDHGC5-001]; ++++ (>70% = ++++)
4. NLLAEIHGV (listed as Homo sapiens) [DPYSL4-001]; ++ (20%-49 % = ++)

----------
# Tested on: CD8+ T cells
# protocol.description: In vitro immunogenicity of HLA-A*02 class I peptides: in vitro T-cell priming with aAPCs loaded with peptide/MHC complexes and anti-CD28 antibody, pMHC multimer readout
# Format: cell-based, human
# setup.conditions: HLA-A*02 peptides; healthy donors; specific multimer+ CD8+ T-cell line after in vitro stimulation
experimental.endpoint: Donors

1. FLWSDGVPL (listed as Homo sapiens) [BCA-003]; ++ (20%-49 % = ++)
2. TLTNIIHNL (listed as Homo sapiens) [ORMDL1-002]; +++ (50%-70% = +++)
3. KVFDEVIEV (listed as Homo sapiens) [GYG2-001]; ++ (20%-49 % = ++)
4. ALFNKGGSVFL (listed as Homo sapiens) [GPR98-001]; ++ (20%-49 % = ++)
5. TMLARLASA (listed as Homo sapiens) [CSP-001]; +++ (50%-70% = +++)
6. EILDYIYEV (listed as Homo sapiens) [ASIC4-001]; ++ (20%-49 % = ++)
7. GVLENIFGV (listed as Homo sapiens) [PCNXL3-001]; ++ (20%-49 % = ++)
8. RLISKFDTV (listed as Homo sapiens) [EIF4E-001]; +++ (50%-70% = +++)
9. FLYKVILSL (listed as Homo sapiens) [PTP-002]; +++ (50%-70% = +++)
10. KLFDSDPITVTV (listed as Homo sapiens) [CLU-001]; ++ (20%-49 % = ++)

Please fill in: Donors reported for LLLGSPAAA (listed as Homo sapiens) [SEZ6L-001] = ++++ (>70% = ++++)

Please fill in: Donors reported for GLLDQIQAL (listed as Homo sapiens) [NLGN4X-002] = ++ (20%-49 % = ++)

Please fill in: Donors reported for AVAPGPWKV (listed as Homo sapiens) [MAGI2-001] = ++ (20%-49 % = ++)

Please fill in: Donors reported for SLGLFLAQV (listed as Homo sapiens) [SCARA3-001] = ++ (20%-49 % = ++)

Please fill in: Donors reported for KIQEILTQV (listed as Homo sapiens) [IGF2BP3-001] = +++ (50%-70% = +++)

----------
# Tested on: CD8+ T cells
# protocol.description: In vitro immunogenicity of HLA-A*02 class I peptides: in vitro T-cell priming with aAPCs loaded with peptide/MHC complexes and anti-CD28 antibody, pMHC multimer readout
# Format: cell-based, human
# setup.conditions: HLA-A*02 peptides; healthy donors; specific multimer+ CD8+ T-cell line after in vitro stimulation
experimental.endpoint: Donors

1) MIWEHNVEV [PTP-013]; ++++ (>70% = ++++)
2) KVFAGIPTV (listed as Homo sapiens) [PTP-005]; ++++ (>70% = ++++)

----------
# Tested on: CD8+ T cells
# protocol.description: In vitro immunogenicity of HLA-A*02 class I peptides: in vitro T-cell priming with aAPCs loaded with peptide/MHC complexes and anti-CD28 antibody, pMHC multimer readout
# Format: cell-based, human
# setup.conditions: HLA-A*02 peptides; healthy donors; specific multimer+ CD8+ T-cell line after in vitro stimulation
experimental.endpoint: Donors

1) ALAFKLDEV (listed as Homo sapiens) [SLC10A4-001]; +++ (50%-70% = +++)
2) ILFEINPKL (listed as Homo sapiens) [ABCA13-001]; ++ (20%-49 % = ++)
3) ALWAWPSEL (listed as Homo sapiens) [BCA-002]; ++++ (>70% = ++++)
4) YQDPHSTAV (listed as Homo sapiens) [EGFR-008]; ++ (20%-49 % = ++)

Please fill in: Donors reported for LTFGDVVAV (listed as Homo sapiens) [FABP7-001] = ++++ (>70% = ++++)

// data source = patent US11607446B2
